ASSAYED_TARGET: Toll-like receptor 9 (Homo sapiens)
ASSAY_METHOD_TEXT: Antagonist activity at human TLR9 expressed in HEK-blue hTLR9 cells assessed as inhibition of CpGB-induced NFkappaB activation preincubated with compound for 1 hrs followed by CpGB addition and measured next day by SEAP-based spectrophotometry assay
Format: cell-based
pIC50: −log10 of the molar value.
Each entry gets No if its pIC50 stays under 6, and Yes if its pIC50 is 6 or above.

mol=COc1ccc(-c2cn3ccc(N4CCN(C(=O)OC(C)(C)C)CC4)cc3n2)c(OCCCN2CCOCC2)c1 category=Yes
mol=COc1ccc(-c2cn3ccccc3n2)c(OC)c1 category=No
mol=COc1ccc(-c2cn3ccc(N4CCN(C(=O)C5CCCC5)CC4)cc3n2)c(OCc2ccccc2)c1 category=No
mol=COc1ccc(-c2cn3ccc(N)cc3n2)c(OC)c1 category=No
mol=COc1ccc(-c2cn3ccc(N4CCN(C(=O)C5CCCC5)CC4)cc3n2)c(OC)c1 category=No
mol=COc1ccc(-c2cn3ccc(N4CCN(C(=O)c5ccc(F)cc5)CC4)cc3n2)c(OCc2ccccc2)c1 category=No
mol=COc1ccc(-c2cn3ccc(NCCCn4ccnc4)cc3n2)c(OC)c1 category=Yes
mol=COc1ccc(-c2cn3ccc(N4CCN(C(=O)C5CCCC5)CC4)cc3n2)c(O)c1 category=No
mol=COc1ccc(-c2cn3ccc(N4CCNCC4)cc3n2)c(OCCCN2CCOCC2)c1 category=Yes
mol=COc1ccc(-c2nc3cc(N4CCN(C5CCCC5)CC4)ccn3c2CN2CCCC2)c(OC)c1 category=Yes
mol=COc1ccc(-c2cn3ccc(N)cc3n2)cc1 category=No
mol=COc1ccc(-c2cn3ccc(N4CCN(C5CCCC5)CC4)cc3n2)c(OCCCN2CCOCC2)c1 category=Yes
mol=COc1ccc(-c2cn3ccc(N4CCN(C5CCCC5)CC4)cc3n2)cc1 category=Yes
mol=COc1ccc(-c2cn3ccc(N4CCN(C(C)C)CC4)cc3n2)cc1 category=Yes
mol=COc1ccc(-c2cn3ccc(N4CCN(C5CCCC5)CC4)cc3n2)c(OCc2ccccc2)c1 category=Yes
mol=COc1ccc(-c2nc3cc(N4CCN(C5CCCC5)CC4)ccn3c2NCc2ccccc2)c(OC)c1 category=Yes
mol=COc1ccc(-c2cn3ccc(NCCCN4CCCC4)cc3n2)c(OC)c1 category=Yes
mol=COc1ccc(-c2cn3ccc(N4CCN(C5CCCC5)CC4)cc3n2)c(OCCCN2CCCC2)c1 category=Yes
mol=COc1ccc(-c2nc3cc(N4CCN(C5CCCC5)CC4)ccn3c2CN2CCOCC2)c(OC)c1 category=Yes

* * *

Toll-like receptor 7 (Homo sapiens, UniProt Q9NYK1) measurements of pIC50, listed per entry.
Sequence (Q9NYK1 whole entry): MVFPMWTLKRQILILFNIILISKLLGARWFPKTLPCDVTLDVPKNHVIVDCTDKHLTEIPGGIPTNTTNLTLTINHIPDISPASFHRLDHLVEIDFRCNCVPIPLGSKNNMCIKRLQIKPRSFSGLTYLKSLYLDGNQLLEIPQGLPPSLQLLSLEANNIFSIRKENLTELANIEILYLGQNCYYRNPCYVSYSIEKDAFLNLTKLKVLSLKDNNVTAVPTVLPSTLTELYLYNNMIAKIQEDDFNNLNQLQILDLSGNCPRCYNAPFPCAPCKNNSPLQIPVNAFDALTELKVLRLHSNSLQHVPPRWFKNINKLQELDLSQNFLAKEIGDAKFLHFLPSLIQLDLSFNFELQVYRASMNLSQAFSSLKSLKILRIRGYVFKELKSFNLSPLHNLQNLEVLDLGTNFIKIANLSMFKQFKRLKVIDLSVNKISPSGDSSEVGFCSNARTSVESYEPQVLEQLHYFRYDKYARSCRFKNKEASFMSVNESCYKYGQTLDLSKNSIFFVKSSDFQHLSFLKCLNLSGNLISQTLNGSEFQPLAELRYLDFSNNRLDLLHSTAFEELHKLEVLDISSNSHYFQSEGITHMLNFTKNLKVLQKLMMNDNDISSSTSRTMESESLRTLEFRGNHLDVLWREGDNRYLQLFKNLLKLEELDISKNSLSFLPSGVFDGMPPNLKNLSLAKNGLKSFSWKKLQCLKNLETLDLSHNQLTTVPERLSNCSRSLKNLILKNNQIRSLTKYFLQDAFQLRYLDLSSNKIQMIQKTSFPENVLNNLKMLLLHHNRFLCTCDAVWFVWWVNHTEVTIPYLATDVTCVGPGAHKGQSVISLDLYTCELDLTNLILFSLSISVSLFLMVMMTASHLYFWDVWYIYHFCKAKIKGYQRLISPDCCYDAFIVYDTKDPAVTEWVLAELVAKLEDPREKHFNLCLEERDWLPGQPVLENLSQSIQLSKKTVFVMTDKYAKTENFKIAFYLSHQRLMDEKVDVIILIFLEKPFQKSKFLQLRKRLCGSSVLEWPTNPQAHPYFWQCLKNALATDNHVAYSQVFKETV
pIC50: −log10 of the molar value.
ASSAY_READOUT: pIC50

mol=COc1ccc(-c2nc3cc(N4CCN(C5CCCC5)CC4)ccn3c2NC2CCCCC2)c(OC)c1 assayed_target="Toll-like receptor 7 (Homo sapiens, UniProt Q9NYK1)" assay_readout=pIC50 measured=5.17
mol=COc1ccc(-c2nc3cc(N4CCN(C(=O)C5CCCC5)CC4)ccn3c2CN2CCCC2)c(OC)c1 assayed_target="Toll-like receptor 7 (Homo sapiens, UniProt Q9NYK1)" assay_readout=pIC50 measured=5.59
mol=COc1ccc(-c2cn3ccc(N4CCN(C(=O)c5ccccc5)CC4)cc3n2)c(OCc2ccccc2)c1 assayed_target="Toll-like receptor 7 (Homo sapiens, UniProt Q9NYK1)" assay_readout=pIC50 measured=4.60
mol=COc1ccc(-c2cn3ccc(N4CCNCC4)cc3n2)c(OCc2ccccc2)c1 assayed_target="Toll-like receptor 7 (Homo sapiens, UniProt Q9NYK1)" assay_readout=pIC50 measured=5.95
mol=COc1ccc(-c2cn3ccc(N4CCN(C(C)C)CC4)cc3n2)cc1 assayed_target="Toll-like receptor 7 (Homo sapiens, UniProt Q9NYK1)" assay_readout=pIC50 measured=5.91

* * *

ASSAY_METHOD_TEXT: physchem
MEASUREMENT_CONDITIONS: buffer, pH 7.4
ASSAY_READOUT: solubility kinetic at 24 h, 500 µM (µg/mL)

mol=COc1ccc(-c2cn3ccc(N4CCN(C5CCCC5)CC4)cc3n2)c(OCCCN2CCOCC2)c1 assay_readout="solubility kinetic at 24 h, 500 µM" measured=2.6
mol=COc1ccc(-c2cn3ccc(N4CCN(C5CCCC5)CC4)cc3n2)c(OC)c1 assay_readout="solubility kinetic at 24 h, 500 µM" measured=10.2
mol=CCCSc1ccc2nc(NC(=O)OC)[nH]c2c1 assay_readout="solubility kinetic at 24 h, 500 µM" measured=2.2
mol=COc1ccc(-c2cn3ccc(N4CCN(C(C)C)CC4)cc3n2)cc1 assay_readout="solubility kinetic at 24 h, 500 µM" measured=46.1

* * *

ASSAYED_TARGET: UniProt:Q9NR96
ASSAY_METHOD_TEXT: Antagonist activity at human TLR9 expressed in HEK-blue hTLR9 cells assessed as inhibition of CpGB-induced NFkappaB activation preincubated with compound for 1 hrs followed by CpGB addition and measured next day by SEAP-based spectrophotometry assay
Format: cell-based
ASSAY_READOUT: IC50 (µM)

mol=COc1ccc(-c2cn3ccc(N4CCN(C(C)C)CC4)cc3n2)c(OC)c1 assay_readout=IC50 measured=0.04
mol=CN(C)c1ccn2cc(-c3ccccc3)nc2c1 assay_readout=IC50 measured=2.19
mol=COc1ccc(-c2cn3ccc(N4CCN(C(=O)OC(C)(C)C)CC4)cc3n2)c(OCCCN2CCCC2)c1 assay_readout=IC50 measured=0.157
mol=COc1ccc(-c2cn3ccc(NCCCN4CCOCC4)cc3n2)cc1 assay_readout=IC50 measured=0.067
mol=COc1ccc(-c2cn3ccc(N4CCNCC4)cc3n2)cc1 assay_readout=IC50 measured=0.803

* * *

ASSAYED_TARGET: Toll-like receptor 9 (Homo sapiens, UniProt Q9NR96)
Sequence (Q9NR96 whole entry): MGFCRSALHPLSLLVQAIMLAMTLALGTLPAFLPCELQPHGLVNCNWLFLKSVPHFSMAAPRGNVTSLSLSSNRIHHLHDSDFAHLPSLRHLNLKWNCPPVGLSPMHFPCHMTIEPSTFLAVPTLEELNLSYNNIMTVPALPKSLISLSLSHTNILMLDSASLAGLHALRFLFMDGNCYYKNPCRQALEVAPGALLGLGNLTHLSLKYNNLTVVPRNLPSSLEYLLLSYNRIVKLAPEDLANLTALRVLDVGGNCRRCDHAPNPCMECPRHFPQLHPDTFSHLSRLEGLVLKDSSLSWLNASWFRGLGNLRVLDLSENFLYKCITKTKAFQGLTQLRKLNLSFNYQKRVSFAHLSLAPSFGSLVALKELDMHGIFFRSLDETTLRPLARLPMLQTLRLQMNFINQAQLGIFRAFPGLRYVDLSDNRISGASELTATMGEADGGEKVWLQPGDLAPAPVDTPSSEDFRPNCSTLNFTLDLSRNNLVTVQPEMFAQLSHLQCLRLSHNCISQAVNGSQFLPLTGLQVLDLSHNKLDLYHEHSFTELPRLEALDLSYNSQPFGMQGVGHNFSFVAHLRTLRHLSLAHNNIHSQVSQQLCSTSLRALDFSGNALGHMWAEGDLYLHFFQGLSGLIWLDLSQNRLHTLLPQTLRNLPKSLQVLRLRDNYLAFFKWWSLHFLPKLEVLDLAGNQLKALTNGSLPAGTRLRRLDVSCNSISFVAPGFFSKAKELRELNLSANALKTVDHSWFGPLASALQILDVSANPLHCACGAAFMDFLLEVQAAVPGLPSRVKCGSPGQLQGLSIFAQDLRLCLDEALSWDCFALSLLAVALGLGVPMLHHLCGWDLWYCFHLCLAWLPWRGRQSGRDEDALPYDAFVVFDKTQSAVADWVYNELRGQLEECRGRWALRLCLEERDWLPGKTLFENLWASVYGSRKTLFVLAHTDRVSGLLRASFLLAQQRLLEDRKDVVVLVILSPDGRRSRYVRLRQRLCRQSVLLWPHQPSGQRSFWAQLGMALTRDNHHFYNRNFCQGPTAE
ASSAY_READOUT: IC50 (nM)

mol=COc1ccc(-c2cn3ccc(N4CCN(C(C)C)CC4)cc3n2)c(OC)c1 assay_readout=IC50 result_unit=nM measured=28

* * *

ASSAYED_TARGET: Toll-like receptor 9 (Homo sapiens, UniProt Q9NR96)
ASSAY_METHOD_TEXT: Antagonist activity at human TLR9 expressed in HEK-blue hTLR9 cells assessed as inhibition of CpGB-induced NFkappaB activation preincubated with compound for 1 hrs followed by CpGB addition and measured next day by SEAP-based spectrophotometry assay
Format: cell-based
ASSAY_READOUT: log10(IC50) (log10 of the value in nM)

mol=COc1ccc(-c2cn3ccc(N4CCNCC4)cc3n2)c(OC)c1 assay_readout=log10(IC50) measured=1.66
mol=COc1ccc(-c2cn3ccc(NCCN4CCOCC4)cc3n2)c(OC)c1 assay_readout=log10(IC50) measured=1.69
mol=COc1ccc(-c2nc3cc(N4CCN(C5CCCC5)CC4)ccn3c2CN2CCCC2)c(O)c1 assay_readout=log10(IC50) measured=2.39
mol=COc1ccc(-c2nc3cc(N4CCN(C(=O)C5CCCC5)CC4)ccn3c2CN2CCCC2)c(OC)c1 assay_readout=log10(IC50) measured=3.05
mol=COc1ccc(-c2nc3cc(N4CCN(C5CCCC5)CC4)ccn3c2CN2CCCC2)c(OCc2ccccc2)c1 assay_readout=log10(IC50) measured=2.38
